Listed here: items and their measured IC50.
- targetEntity: recombinant QR2 (Homo sapiens)
- assayName: Inhibition of QR2 activity in vitro (absorbance at 365 nm, NmeH/menadione)
- Format: biochemical
- condition: set 2; average; read-out: IC50 Average
Return type: number; implicit unit nM.

>>> assayvalue("CCN(CC)CCCC(C)Nc1ccnc2cc(Cl)ccc12 (centres unmarked) [chloroquine, reference compound]")
4130

Task: Which IC50 is listed for Clc1ccc2c(NCc3ccccn3)ccnc2c1 [Compound 2-17] ?
Result: 550

----------
- targetEntity: recombinant QR2 (Homo sapiens, UniProt P16083)
- Sequence (P16083 whole entry): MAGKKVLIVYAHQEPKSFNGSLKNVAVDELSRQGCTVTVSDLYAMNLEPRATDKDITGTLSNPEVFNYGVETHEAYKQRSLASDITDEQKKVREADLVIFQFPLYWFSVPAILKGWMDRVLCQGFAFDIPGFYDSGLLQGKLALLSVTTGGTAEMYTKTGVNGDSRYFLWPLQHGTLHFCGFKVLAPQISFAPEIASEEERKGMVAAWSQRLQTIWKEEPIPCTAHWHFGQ
- assayName: Inhibition of QR2 activity in vitro (absorbance at 365 nm, NmeH/menadione)
- Assay type: biochemical
- condition: IC50 Average, average of the determinations
- Protocol: Inhibition of QR2 activity by the compounds of the invention was assayed in triplicate with recombinant QR2 (at 96 ng/ml) by measuring the absorbance at 365 nm in a buffer containing 50 Mm Tris-HCl, Ph 8.5, 50 μM NmeH, 20 μM menadione, and 0.1% Triton X-100 as described in Graves et al. (2002) Mol. Pharmacol. 62: 1364-72.
assayMetric: pIC50
A value of pIC50 is the negative decimal logarithm of a concentration given in moles per litre.

Task: Which pIC50 is listed for COc1cc(NC(C)CCCN)c2ncccc2c1 (stereo not shown) [primaquine, reference compound] ?
Result: 4.89

Values were extracted from patent US20060074105A1.
